Provenance of the data: ChEMBL document CHEMBL4689842

# Test system: U2OS
# MEASUREMENT_PROTOCOL: Multiplex assay against U2OS
# Format: toxicity, cell-based
# DETAILS: human, 48 h, 10 µM, compound concentration 10 uM, replicate 2
Population Mitotic Cells (%) vs 3%: at or above is MET, below is NOT MET.

Query :: Given the entry `C=CC(=O)Nc1cccc(C(=O)Nc2ccc(Nc3cc(-c4[nH]c(SC)nc4C)ccn3)cc2)c1` , answer whether its Population Mitotic Cells (%) meets or surpasses 3%.
Result :: MET

Query :: Given the entry COc1cccc([C@@H](C)NCCCc2ccccc2Cl)c1.Cl [TECALCET HYDROCHLORIDE] , answer whether its Population Mitotic Cells (%) meets or surpasses 3%.
Result :: MET

Query :: Given the entry `CCOCCn1cc(C(=O)Nc2ccc(-n3nc(-c4cccnc4)cc3C(F)(F)F)cn2)ccc1=O` , answer whether its Population Mitotic Cells (%) meets or surpasses 3%.
Result :: MET

Query :: Given the entry `CCn1c(=O)c(-c2ccc(Cl)cc2Cl)cc2cnc(Nc3ccc(N4CCNCC4)c(F)c3)nc21` , answer whether its Population Mitotic Cells (%) meets or surpasses 3%.
Result :: NOT MET

Query :: Given the entry `Cc1c(-c2ccc(O)cc2)n(Cc2ccc(OCCN3CCCCCC3)cc2)c2ccc(O)cc12` , answer whether its Population Mitotic Cells (%) meets or surpasses 3%.
Result :: NOT MET

Query :: Given the entry `CNc1nc(NCc2ccc(NS(C)(=O)=O)cc2Cl)cc(-c2ccccn2)n1` , answer whether its Population Mitotic Cells (%) meets or surpasses 3%.
Result :: MET

Query :: Given the entry `CC(C)(O)CNc1ncc(-c2ccnc(Nc3ccnc(Cl)c3)n2)c(CC2CC2)n1` , answer whether its Population Mitotic Cells (%) meets or surpasses 3%.
Result :: MET

Query :: Given the entry `Cc1csc2c(N[C@@H](C)CN3CCN(S(=O)(=O)c4ccc(Cl)c(Cl)c4)CC3)ncnc12` , answer whether its Population Mitotic Cells (%) meets or surpasses 3%.
Result :: MET

* * *

# Test system: U2OS
# MEASUREMENT_PROTOCOL: Multiplex assay against U2OS
# Assay type: toxicity, cell-based
# DETAILS: human, 24 h, 10 µM, compound concentration 10 uM, replicate 1
MEASURED_ATTRIBUTE: Population Hoechst High Intensity Objects (%)
Write the answer as a number in %, unit excluded.

Query :: Specify reported Population Hoechst High Intensity Objects (%) for the compound shown: `C=CC(=O)Nc1cccc(C(=O)Nc2ccc(Nc3cc(-c4[nH]c(SC)nc4C)ccn3)cc2)c1`
Result :: 5

Query :: Specify reported Population Hoechst High Intensity Objects (%) for the compound shown: `OC1(c2ccc(Cl)cc2)CCN(Cc2c[nH]c3ccccc23)CC1`
Result :: 9

Query :: Specify reported Population Hoechst High Intensity Objects (%) for the compound shown: O=C1NCN(c2ccccc2)C12CCN(CCCOc1ccc(F)cc1)CC2 [SPIRAMIDE]
Result :: 8

Query :: Specify reported Population Hoechst High Intensity Objects (%) for the compound shown: `Cc1csc2c(N[C@@H](C)CN3CCN(S(=O)(=O)c4ccc(Cl)c(Cl)c4)CC3)ncnc12`
Result :: 5

Query :: Specify reported Population Hoechst High Intensity Objects (%) for the compound shown: `CN(C)CC#Cc1ccc(OCCCc2sc(N3CCc4cccc(C(=O)Nc5nc6ccccc6s5)c4C3)nc2C(=O)O)c(F)c1`
Result :: 5

Query :: Specify reported Population Hoechst High Intensity Objects (%) for the compound shown: COc1cccc([C@@H](C)NCCCc2ccccc2Cl)c1.Cl [TECALCET HYDROCHLORIDE]
Result :: 12

Query :: Specify reported Population Hoechst High Intensity Objects (%) for the compound shown: CN1CCCC(n2nc(Cc3ccc(Cl)cc3)c3ccccc3c2=O)CC1.Cl (stereo not drawn) [AZELASTINE HYDROCHLORIDE]
Result :: 10

Query :: Specify reported Population Hoechst High Intensity Objects (%) for the compound shown: `CCN(CC)CCCCNc1ncc2cc(-c3cc(OC)cc(OC)c3)c(NC(=O)NC(C)(C)C)nc2n1`
Result :: 17

* * *

# Test system: U2OS
# MEASUREMENT_PROTOCOL: Multiplex assay against U2OS
# Format: toxicity, cell-based
# DETAILS: human, 48 h, 10 µM, compound concentration 10 uM, replicate 1
MEASURED_ATTRIBUTE: Population Pyknosed Nuclei (%)
Write the answer as a number in %, unit excluded.

Query :: Specify reported Population Pyknosed Nuclei (%) for the compound shown: `CNc1nc(NCc2ccc(NS(C)(=O)=O)cc2Cl)cc(-c2ccccn2)n1`
Result :: 25

Query :: Specify reported Population Pyknosed Nuclei (%) for the compound shown: c1cn2cc(-c3ccc4cn[nH]c4c3)nc(Nc3ccc(N4CCOCC4)cc3)c2n1 [ENTOSPLETINIB]
Result :: 58

Query :: Specify reported Population Pyknosed Nuclei (%) for the compound shown: CN1CCN(CCOc2cc(OC3CCOCC3)c3c(Nc4c(Cl)ccc5c4OCO5)ncnc3c2)CC1 [SARACATINIB]
Result :: 38

Query :: Specify reported Population Pyknosed Nuclei (%) for the compound shown: C[C@@]1(C(=O)Nc2ccc(F)nc2)CCCN1c1nc(Nc2cc(C3CC3)n[nH]2)c2cccn2n1 [BMS-754807]
Result :: 52

* * *

# System: U2OS
# MEASUREMENT_PROTOCOL: Multiplex assay against U2OS
# Assay type: toxicity, cell-based
# DETAILS: human, 48 h, 10 µM, compound concentration 10 uM, replicate 1
MEASURED_ATTRIBUTE: Population Membrane Permeable-Phenotype (%)
# answer = value followed by unit

Query :: Specify reported Population Membrane Permeable-Phenotype (%) for the molecule shown: `CNc1nc(NCc2ccc(NS(C)(=O)=O)cc2Cl)cc(-c2ccccn2)n1`
Result :: 7%

Query :: Specify reported Population Membrane Permeable-Phenotype (%) for the molecule shown: Cl.N#Cc1ccc2[nH]cc(CCCCN3CCN(c4ccc5oc(C(N)=O)cc5c4)CC3)c2c1 [VILAZODONE HYDROCHLORIDE]
Result :: 87%

Query :: Specify reported Population Membrane Permeable-Phenotype (%) for the molecule shown: COc1ncc(-c2ccc3nccc(-c4ccnnc4)c3c2)cc1NS(=O)(=O)c1ccc(F)cc1F [OMIPALISIB]
Result :: 46%

Query :: Specify reported Population Membrane Permeable-Phenotype (%) for the molecule shown: CN1CCN(CCOc2cc(OC3CCOCC3)c3c(Nc4c(Cl)ccc5c4OCO5)ncnc3c2)CC1 [SARACATINIB]
Result :: 36%

Query :: Specify reported Population Membrane Permeable-Phenotype (%) for the molecule shown: Cc1c(-c2ccc(O)cc2)n(Cc2ccc(OCCN3CCCCCC3)cc2)c2ccc(O)cc12 [BAZEDOXIFENE]
Result :: 77%

Query :: Specify reported Population Membrane Permeable-Phenotype (%) for the molecule shown: CN1CCC[C@@H]1CCO[C@](C)(c1ccccc1)c1ccc(Cl)cc1.O=C(O)/C=C/C(=O)O [CLEMASTINE FUMARATE]
Result :: 3%

Query :: Specify reported Population Membrane Permeable-Phenotype (%) for the molecule shown: CN(C)CC#Cc1ccc(OCCCc2sc(N3CCc4cccc(C(=O)Nc5nc6ccccc6s5)c4C3)nc2C(=O)O)c(F)c1 [A-1155463]
Result :: 23%

Query :: Specify reported Population Membrane Permeable-Phenotype (%) for the molecule shown: `OC1(c2ccc(Cl)cc2)CCN(Cc2c[nH]c3ccccc23)CC1`
Result :: 25%

Query :: Specify reported Population Membrane Permeable-Phenotype (%) for the molecule shown: `Cc1csc2c(N[C@@H](C)CN3CCN(S(=O)(=O)c4ccc(Cl)c(Cl)c4)CC3)ncnc12`
Result :: 78%

Query :: Specify reported Population Membrane Permeable-Phenotype (%) for the molecule shown: `CN(C)C(=O)/C(C#N)=C/c1ccc(-c2nc3cnc4[nH]ccc4c3n2C2CCCCC2)o1`
Result :: 23%

Query :: Specify reported Population Membrane Permeable-Phenotype (%) for the molecule shown: `C=CC(=O)Nc1cccc(C(=O)Nc2ccc(Nc3cc(-c4[nH]c(SC)nc4C)ccn3)cc2)c1`
Result :: 2%

Query :: Specify reported Population Membrane Permeable-Phenotype (%) for the molecule shown: O=C1NCN(c2ccccc2)C12CCN(CCCOc1ccc(F)cc1)CC2 [SPIRAMIDE]
Result :: 12%

Query :: Specify reported Population Membrane Permeable-Phenotype (%) for the molecule shown: CN1CCN(c2ccc(OC(F)(F)F)c(Nc3ncc4c(n3)-c3c(c(C(N)=O)nn3CCO)CC4)c2)CC1 [ONVANSERTIB]
Result :: 5%

Query :: Specify reported Population Membrane Permeable-Phenotype (%) for the molecule shown: NC(=O)Nc1cc(-c2cccc(F)c2)sc1C(=O)N[C@H]1CCCNC1 [AZD-7762]
Result :: 0%

Query :: Specify reported Population Membrane Permeable-Phenotype (%) for the molecule shown: `CC(C)(O)CNc1ncc(-c2ccnc(Nc3ccnc(Cl)c3)n2)c(CC2CC2)n1`
Result :: 50%

Query :: Specify reported Population Membrane Permeable-Phenotype (%) for the molecule shown: C[C@@H](NCCCc1cccc(C(F)(F)F)c1)c1cccc2ccccc12.Cl [CINACALCET HYDROCHLORIDE]
Result :: 58%

Query :: Specify reported Population Membrane Permeable-Phenotype (%) for the molecule shown: CN(C)C(=O)N[C@H]1CC[C@H](CCN2CCN(c3cccc(Cl)c3Cl)CC2)CC1.Cl [CARIPRAZINE HYDROCHLORIDE]
Result :: 26%
